SMILES_STRING: COc1cc(-c2[nH]c(C3CCCC3)nc2Cl)ccc1OCc1ccc(C(F)(F)F)cn1
melting point: 182 to 184 °C (dec.)

SMILES_STRING: COc1cc(OCc2ccc(C(F)(F)F)cn2)ccc1-c1nc(-c2ccc(Cl)cn2)[nH]c1Cl
melting point: 197 to 199 °C (dec.)

SMILES_STRING: COc1cc(OCc2cncc(C(F)(F)F)c2)ccc1-c1[nH]c(-c2ccc(F)nc2)nc1Cl
melting point: 188 to 190 °C

SMILES_STRING: COc1cc(OCc2ccc(C(F)(F)F)nc2)ccc1-c1nc(-c2ccc(F)nc2)[nH]c1Br
melting point: 195 to 197 °C (dec.)

SMILES_STRING: COc1cc(OCc2ccc(C(F)(F)F)cn2)ccc1-c1cn(C)c(-c2ccc(F)nc2)n1
melting point: 168 to 171 °C

SMILES_STRING: COc1cc(OCc2ccc(Br)cc2F)ccc1-c1[nH]c(-c2ccc(F)nc2)nc1Br
melting point: 158 to 161 °C

SMILES_STRING: COc1cc(OCc2cncc(C(F)(F)F)c2)ccc1-c1cnc(-c2ccc(F)nc2)[nH]1
melting point: 210 to 212 °C (dec.)

SMILES_STRING: COc1cc(OCc2ccc(C(F)(F)F)cn2)ccc1-c1c[nH]c(-c2ccc(C(F)(F)F)nc2)n1
melting point: 209 to 211 °C
